Reference source for all entries: paper PMC5278571

Experiment: Pharmacokinetics of caspofungin during continuous venovenous hemodiafiltration (CVVHD)
Format: in vivo, human
Conditions: human, in vivo, iv, patient 8; 2 h after infusion ended; steady state, CVVHD; HPLC; read-out: Arterial caspofungin concentration
observation_type: level at 2 h (ng/mL)
Only the number, expressed in ng/mL, is required.

Asked: Give its level at 2 h value. Item: CC[C@H](C)C[C@H](C)CCCCCCCCC(=O)N[C@H]1C[C@@H](O)[C@@H](NCCN)NC(=O)[C@@H]2[C@@H](O)CCN2C(=O)[C@H]([C@H](O)CCN)NC(=O)[C@H]([C@H](O)[C@@H](O)c2ccc(O)cc2)NC(=O)[C@@H]2C[C@@H](O)CN2C(=O)[C@H]([C@@H](C)O)NC1=O
Given back: 5880
